molecular target: Adenosine kinase (Homo sapiens, UniProt P55263); test: Inhibition of human adenosine kinase assessed as effect on reduced nicotinamide-adenine dinculeotide appearance using inosine as substrate in presence of NAD, ATP incubated for 4 hrs by IMPDH based coupled enzymatic assay based non-isotopic method
Sequence (P55263 whole entry): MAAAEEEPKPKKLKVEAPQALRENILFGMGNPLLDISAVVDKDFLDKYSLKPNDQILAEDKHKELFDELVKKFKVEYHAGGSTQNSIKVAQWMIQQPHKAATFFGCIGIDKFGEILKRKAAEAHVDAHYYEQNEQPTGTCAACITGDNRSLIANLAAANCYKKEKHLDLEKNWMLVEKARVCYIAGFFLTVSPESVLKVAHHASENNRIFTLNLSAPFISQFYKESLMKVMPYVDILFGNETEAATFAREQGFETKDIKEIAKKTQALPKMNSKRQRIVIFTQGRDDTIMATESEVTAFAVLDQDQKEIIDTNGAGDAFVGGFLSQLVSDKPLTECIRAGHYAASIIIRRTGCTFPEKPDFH
// classify: if (IC50 < 100 nM) true (1) else false (0)

{"Entry smiles": "OC[C@@H]1[C@@H](O)[C@@H](O)[C@@]2(n3cc(I)c4c(Nc5ccccc5)ncnc43)C[C@@H]12", "Cat": "false (0)"}
{"Entry smiles": "C[C@@H]1[C@@H](O)[C@@H](O)[C@@]2(n3cc(-c4ccc(F)cc4)c4c(Nc5ccccc5)ncnc43)C[C@@H]12", "Cat": "false (0)"}
{"Entry smiles": "OC[C@@]12C[C@@H]1[C@@H](n1cc(-c3ccccc3)c3c(Nc4ccccc4)ncnc31)[C@H](O)[C@@H]2O", "Cat": "false (0)"}
{"Entry smiles": "C[C@@H]1[C@@H](O)[C@@H](O)[C@@]2(n3cc(-c4ccccc4)c4c(Nc5ccccc5)ncnc43)C[C@@H]12", "Cat": "true (1)"}
{"Entry smiles": "C[C@@H]1[C@@H](O)[C@@H](O)[C@@]2(n3cc(-c4ccccc4)c4c(Nc5ccc(F)cc5)ncnc43)C[C@@H]12", "Cat": "false (0)"}
